# tested_on: PIK3CA (human), P42336 [Antiproliferation of PI3K Mutated BT20 Cells]
# Sequence (P42336 whole entry, looked up, change not shown): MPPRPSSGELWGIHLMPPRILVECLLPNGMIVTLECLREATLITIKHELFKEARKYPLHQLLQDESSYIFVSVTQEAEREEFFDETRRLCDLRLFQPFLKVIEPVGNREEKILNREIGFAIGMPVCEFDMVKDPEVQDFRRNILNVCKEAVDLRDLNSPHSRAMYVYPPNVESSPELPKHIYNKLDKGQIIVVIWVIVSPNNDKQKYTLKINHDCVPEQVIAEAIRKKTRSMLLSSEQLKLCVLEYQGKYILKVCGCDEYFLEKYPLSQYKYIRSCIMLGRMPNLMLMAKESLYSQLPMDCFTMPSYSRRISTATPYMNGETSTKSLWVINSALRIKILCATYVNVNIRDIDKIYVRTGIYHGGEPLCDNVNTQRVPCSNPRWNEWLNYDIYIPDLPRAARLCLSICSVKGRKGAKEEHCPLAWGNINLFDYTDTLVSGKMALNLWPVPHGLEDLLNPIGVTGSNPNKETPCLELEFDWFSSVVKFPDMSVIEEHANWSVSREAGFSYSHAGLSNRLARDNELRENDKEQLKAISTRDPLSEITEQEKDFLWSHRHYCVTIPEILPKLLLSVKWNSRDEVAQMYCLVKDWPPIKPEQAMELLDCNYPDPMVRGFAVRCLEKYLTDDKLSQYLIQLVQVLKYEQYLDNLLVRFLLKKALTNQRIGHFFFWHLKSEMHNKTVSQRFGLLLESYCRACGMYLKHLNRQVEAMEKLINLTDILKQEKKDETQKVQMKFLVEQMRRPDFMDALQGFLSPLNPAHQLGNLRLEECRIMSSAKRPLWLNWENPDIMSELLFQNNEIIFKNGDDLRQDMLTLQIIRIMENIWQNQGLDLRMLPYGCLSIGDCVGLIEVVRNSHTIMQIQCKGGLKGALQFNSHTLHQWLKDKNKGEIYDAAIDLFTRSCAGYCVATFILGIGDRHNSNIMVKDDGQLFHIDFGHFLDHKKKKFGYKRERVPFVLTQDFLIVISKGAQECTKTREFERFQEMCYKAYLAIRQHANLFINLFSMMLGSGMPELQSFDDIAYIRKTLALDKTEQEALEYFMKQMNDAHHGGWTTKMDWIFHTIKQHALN
# experiment_description: Cell-Based Assay
reported_property: IC50 (nM)

Cc1nc(N)nc2c1cc(-c1cn[nH]c1)c(=O)n2[C@H]1CC[C@@H](OCCO)CC1 ... 9.1
COc1ccc(-c2cc3c(C)nc(N)nc3n([C@H]3CC[C@H](OC)CC3)c2=O)cn1 ... 7.37

A = Cc1nc(N)nc2c1cc(Br)c(=O)n2[C@H]1CC[C@H](O)CC1
B = COc1ncc(-c2cc3c(C)nc(N)nc3n([C@H]3C[C@H](OCC(N)=O)C3)c2=O)cn1
C = CCN(CC)C(=O)OCn1cc(-c2cc3c(C)nc(N)nc3n(C(C)C)c2=O)nn1
D = CNc1nc(C)c2cc(-c3cnc4[nH]ccc4c3)c(=O)n(C3CCCC3)c2n1
Hey, quick one: sort these by IC50, top value first please. Enter labels, ranked according to the request. C, A, B, D

1 = Cc1cc(-c2cc3c(C)nc(N)nc3n(C3CCCC3)c2=O)cnc1N(C)C
2 = Cc1nc(N)nc2c1cc(-c1ccc(N(C)C)nc1)c(=O)n2[C@H]1CC[C@H](OCCO)CC1
I need your help: which of the pair 1 , 2 has higher IC50? Return value: the label identifying the chosen record. 1
(1: 23.1 nM, 2: 12.1 nM)
